The origin of these recorded values is patent US20120172293A1.

System Name: human Y2 receptor (human) (UniProt P49146)
Sequence (P49146 whole entry): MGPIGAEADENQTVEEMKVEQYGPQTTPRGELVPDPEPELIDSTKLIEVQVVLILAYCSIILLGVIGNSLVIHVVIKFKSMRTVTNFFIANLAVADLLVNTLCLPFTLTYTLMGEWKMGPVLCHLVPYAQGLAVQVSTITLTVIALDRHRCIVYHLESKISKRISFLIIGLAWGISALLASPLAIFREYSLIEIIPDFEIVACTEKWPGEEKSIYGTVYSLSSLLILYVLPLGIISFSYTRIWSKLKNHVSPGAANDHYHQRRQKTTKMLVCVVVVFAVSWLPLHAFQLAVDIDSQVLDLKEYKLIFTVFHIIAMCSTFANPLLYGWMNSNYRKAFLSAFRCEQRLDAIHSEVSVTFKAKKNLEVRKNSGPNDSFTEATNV
Procedure Details: RBA: [125I]-PYY displacement, hY2R/CHO membranes
Non-standard residues stand in square brackets, D forms with d. No end group written: not given here. *: point of attachment. 1Nal = N[C@@H](Cc1cccc2ccccc12)C(=O)O; Cyclohexanecarbonyl = O=C(C1CCCCC1)*; Arg(Me) = CNC(=N)NCCC[C@H](N)C(=O)O; Ala(cPr) = N[C@@H](CC1CC1)C(=O)O; Cha = N[C@@H](CC1CCCCC1)C(=O)O; Cit = NC(=O)NCCC[C@H](N)C(=O)O; NMeA = CN[C@@H](C)C(=O)O; Dab = NCC[C@H](N)C(=O)O; Nva = CCC[C@H](N)C(=O)O; Dap = NC[C@H](N)C(=O)O; Aib = CC(C)(N)C(=O)O; Bz = O=C(c1ccccc1)*; Sar = CNCC(=O)O
// boundary case: IC50 Ratio (vs PYY(3-36)) equal to 10 maps to Not fulfilled; strictly smaller maps to Fulfilled

stdin: State whether 10 exceeds IC50 Ratio (vs PYY(3-36)) recorded for Bz-RH[Cha][1Nal]NL[Aib]TRQR[Cha]-NH2 (SMILES CC(C)C[C@H](NC(=O)[C@H](CC(N)=O)NC(=O)[C@H](Cc1cccc2ccccc12)NC(=O)[C@H](CC1CCCCC1)NC(=O)[C@H](Cc1c[nH]cn1)NC(=O)[C@H](CCCNC(=N)N)NC(=O)c1ccccc1)C(=O)NC(C)(C)C(=O)N[C@H](C(=O)N[C@@H](CCCNC(=N)N)C(=O)N[C@@H](CCC(N)=O)C(=O)N[C@@H](CCCNC(=N)N)C(=O)N[C@@H](CC1CCCCC1)C(N)=O)[C@@H](C)O) [Benzoyl-[Cha27,36, Nal(1)28, Aib31]-PYY(25-36)] .
stdout: Not fulfilled

stdin: Does this binder meet the criterion IC50 Ratio (vs PYY(3-36)) < 10? Ac-S[dP]RH[Cha][Cha]N[Dab][Aib]TRQR[Cha]-NH2 (SMILES CC(=O)N[C@@H](CO)C(=O)N1CCC[C@@H]1C(=O)N[C@@H](CCCNC(=N)N)C(=O)N[C@@H](Cc1c[nH]cn1)C(=O)N[C@@H](CC1CCCCC1)C(=O)N[C@@H](CC1CCCCC1)C(=O)N[C@@H](CC(N)=O)C(=O)N[C@@H](CCN)C(=O)NC(C)(C)C(=O)N[C@H](C(=O)N[C@@H](CCCNC(=N)N)C(=O)N[C@@H](CCC(N)=O)C(=O)N[C@@H](CCCNC(=N)N)C(=O)N[C@@H](CC1CCCCC1)C(N)=O)[C@@H](C)O) [Ac-[D-Pro24, Cha27,28,36, Dab30, Aib31]-PYY(23-36)]
stdout: Fulfilled

stdin: In plain terms, does Bz-RH[Cha]INL[Arg(Me)]TRQR[Cha]-NH2 (SMILES CC[C@H](C)[C@H](NC(=O)[C@H](CC1CCCCC1)NC(=O)[C@H](Cc1c[nH]cn1)NC(=O)[C@H](CCCNC(=N)N)NC(=O)c1ccccc1)C(=O)N[C@@H](CC(N)=O)C(=O)N[C@@H](CC(C)C)C(=O)N[C@@H](CCCNC(=N)NC)C(=O)N[C@H](C(=O)N[C@@H](CCCNC(=N)N)C(=O)N[C@@H](CCC(N)=O)C(=O)N[C@@H](CCCNC(=N)N)C(=O)N[C@@H](CC1CCCCC1)C(N)=O)[C@@H](C)O) [Benzoyl-[Cha27,36, Ile28, Arg(Me)31]-PYY(25-36)] come in under 10 for IC50 Ratio (vs PYY(3-36))?
stdout: Not fulfilled

stdin: For Bz-RH[Cha]INL[Dap]TRQR[Cha]-NH2 (SMILES CC[C@H](C)[C@H](NC(=O)[C@H](CC1CCCCC1)NC(=O)[C@H](Cc1c[nH]cn1)NC(=O)[C@H](CCCNC(=N)N)NC(=O)c1ccccc1)C(=O)N[C@@H](CC(N)=O)C(=O)N[C@@H](CC(C)C)C(=O)N[C@@H](CN)C(=O)N[C@H](C(=O)N[C@@H](CCCNC(=N)N)C(=O)N[C@@H](CCC(N)=O)C(=O)N[C@@H](CCCNC(=N)N)C(=O)N[C@@H](CC1CCCCC1)C(N)=O)[C@@H](C)O) [Benzoyl-[Cha27,36, Ile28, Dap31]-PYY(25-36)] , is the recorded IC50 Ratio (vs PYY(3-36)) below the cut-off of 10?
stdout: Not fulfilled

stdin: Dear reviewer, please state whether [NMeA]S[dP]RH[Cha][Cha]NL[Aib]TRQR[Cha]-NH2 (N-terminus assumed; SMILES CN[C@@H](C)C(=O)N[C@@H](CO)C(=O)N1CCC[C@@H]1C(=O)N[C@@H](CCCNC(=N)N)C(=O)N[C@@H](Cc1c[nH]cn1)C(=O)N[C@@H](CC1CCCCC1)C(=O)N[C@@H](CC1CCCCC1)C(=O)N[C@@H](CC(N)=O)C(=O)N[C@@H](CC(C)C)C(=O)NC(C)(C)C(=O)N[C@H](C(=O)N[C@@H](CCCNC(=N)N)C(=O)N[C@@H](CCC(N)=O)C(=O)N[C@@H](CCCNC(=N)N)C(=O)N[C@@H](CC1CCCCC1)C(N)=O)[C@@H](C)O) [[MeAla22, D-Pro24, Cha27,28,36, Aib31]-PYY(22-36)] has IC50 Ratio (vs PYY(3-36)) strictly beneath 10.
stdout: Fulfilled

stdin: Is IC50 Ratio (vs PYY(3-36)) strictly under 10 for the entry Bz-RH[Nva][Cha]NL[Aib]TRQR[Cha]-NH2 (SMILES CCC[C@H](NC(=O)[C@H](Cc1c[nH]cn1)NC(=O)[C@H](CCCNC(=N)N)NC(=O)c1ccccc1)C(=O)N[C@@H](CC1CCCCC1)C(=O)N[C@@H](CC(N)=O)C(=O)N[C@@H](CC(C)C)C(=O)NC(C)(C)C(=O)N[C@H](C(=O)N[C@@H](CCCNC(=N)N)C(=O)N[C@@H](CCC(N)=O)C(=O)N[C@@H](CCCNC(=N)N)C(=O)N[C@@H](CC1CCCCC1)C(N)=O)[C@@H](C)O) [Benzoyl-[Nva27, Cha28,36, Aib31]-PYY(25-36)] ?
stdout: Not fulfilled

stdin: Determine if Ac-[dS][Sar]RH[Cha][Cha]NL[Aib]TRQR[Cha]-NH2 (SMILES CC(=O)N[C@H](CO)C(=O)N(C)CC(=O)N[C@@H](CCCNC(=N)N)C(=O)N[C@@H](Cc1c[nH]cn1)C(=O)N[C@@H](CC1CCCCC1)C(=O)N[C@@H](CC1CCCCC1)C(=O)N[C@@H](CC(N)=O)C(=O)N[C@@H](CC(C)C)C(=O)NC(C)(C)C(=O)N[C@H](C(=O)N[C@@H](CCCNC(=N)N)C(=O)N[C@@H](CCC(N)=O)C(=O)N[C@@H](CCCNC(=N)N)C(=O)N[C@@H](CC1CCCCC1)C(N)=O)[C@@H](C)O) [Ac-[D-Ser23, Sar24, Cha27,28,36, Aib31]-PYY(23-36)] shows IC50 Ratio (vs PYY(3-36)) strictly lower than 10.
stdout: Fulfilled

stdin: IC50 Ratio (vs PYY(3-36)) under 10? Item: Ac-S[dP]R[Cit][Cha][Cha]NL[Aib]TRQR[Cha]-NH2 (SMILES CC(=O)N[C@@H](CO)C(=O)N1CCC[C@@H]1C(=O)N[C@@H](CCCNC(=N)N)C(=O)N[C@@H](CCCNC(N)=O)C(=O)N[C@@H](CC1CCCCC1)C(=O)N[C@@H](CC1CCCCC1)C(=O)N[C@@H](CC(N)=O)C(=O)N[C@@H](CC(C)C)C(=O)NC(C)(C)C(=O)N[C@H](C(=O)N[C@@H](CCCNC(=N)N)C(=O)N[C@@H](CCC(N)=O)C(=O)N[C@@H](CCCNC(=N)N)C(=O)N[C@@H](CC1CCCCC1)C(N)=O)[C@@H](C)O) [Ac-[D-Pro24, Cit26, Cha27,28,36, Aib31]-PYY(23-36)]
stdout: Fulfilled

stdin: Does the reported IC50 Ratio (vs PYY(3-36)) of Cyclohexanecarbonyl-RH[Cha][Ala(cPr)]NL[Aib]TRQR[Cha]-NH2 (SMILES CC(C)C[C@H](NC(=O)[C@H](CC(N)=O)NC(=O)[C@H](CC1CC1)NC(=O)[C@H](CC1CCCCC1)NC(=O)[C@H](Cc1c[nH]cn1)NC(=O)[C@H](CCCNC(=N)N)NC(=O)C1CCCCC1)C(=O)NC(C)(C)C(=O)N[C@H](C(=O)N[C@@H](CCCNC(=N)N)C(=O)N[C@@H](CCC(N)=O)C(=O)N[C@@H](CCCNC(=N)N)C(=O)N[C@@H](CC1CCCCC1)C(N)=O)[C@@H](C)O) [Cyclohexanecarbonyl-[Cha27,36, Ala(cPr)28, Aib31]-PYY(25-36)] stay below 10?
stdout: Not fulfilled
